target: Heme oxygenase 2 (Rattus norvegicus, UniProt P23711)
Reported pIC50 is given for each of the following compounds.
Notebook: values listed as pIC50 are -log10 of the concentration (mol/L).

[Q] Request - read-out pIC50 | tested on Heme oxygenase 2 (Rattus norvegicus, UniProt P23711) | compound c1ccc(CCn2c(CN3CCCC3)nc3ccccc32)cc1
[A] 5.57

---

Biological target: Heme oxygenase 2 (Rattus norvegicus, UniProt P23711)
Sequence (P23711 whole entry): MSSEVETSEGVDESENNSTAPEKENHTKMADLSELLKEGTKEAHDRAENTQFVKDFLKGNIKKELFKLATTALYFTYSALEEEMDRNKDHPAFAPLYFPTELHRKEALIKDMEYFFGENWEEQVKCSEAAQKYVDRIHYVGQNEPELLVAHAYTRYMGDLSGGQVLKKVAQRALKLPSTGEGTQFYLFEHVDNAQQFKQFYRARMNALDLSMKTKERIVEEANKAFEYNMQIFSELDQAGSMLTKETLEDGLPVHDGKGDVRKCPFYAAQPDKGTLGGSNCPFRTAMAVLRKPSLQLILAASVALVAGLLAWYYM
measured metric: pIC50
pIC50 is defined as minus the log10 of a concentration measured in mol/L.

Answered cases to consult:
{"columns": ["substance smiles", "pIC50"],
 "data": [
  ["N#Cc1ccccc1Cn1c(CN2CCCC2)nc2ccccc21", 5.40],
  ["Ic1ccc(Cn2c(CN3CCCC3)nc3ccccc32)cc1", 5.12],
  ["COc1ccc(Cn2c(CN3CCCC3)nc3ccccc32)cc1", 4.74],
  ["CCCn1c(CN2CCCC2)nc2ccccc21", 4.57]
]}

[Q] Entry Clc1cccc(Cl)c1Cn1c(CN2CCCC2)nc2ccccc21 : reported pIC50 = ?
[A] 5.04

[Q] Value lookup for pIC50; key = c1ccc2c(c1)nc(CN1CCCC1)n2CC1CCCCC1
[A] 5.22

[Q] What pIC50 value was documented for this compound, Clc1cccc(Cn2c(CN3CCCC3)nc3ccccc32)c1 ?
[A] 5.78

[Q] Look up pIC50 for this compound: N#Cc1ccc(Cn2c(CN3CCCC3)nc3ccccc32)cc1
[A] 4.96

[Q] Consider the compound O=[N+]([O-])c1cccc(Cn2c(CN3CCCC3)nc3ccccc32)c1 and give its measured pIC50.
[A] 5.89

[Q] Report pIC50 for Cc1ccccc1Cn1c(CN2CCCC2)nc2ccccc21 please.
[A] 5.74

[Q] pIC50 lookup needed for Cc1cccc(Cn2c(CN3CCCC3)nc3ccccc32)c1 , thanks.
[A] 5.30

[Q] Please look up its pIC50: c1ccc(COc2ccc(Cn3c(CN4CCCC4)nc4ccccc43)cc2)cc1
[A] 4.20

---

species on record: Rattus norvegicus; assay: Selectivity index, ratio of IC50 for HO-1 in Sprague-Dawley rat spleen microsomal fractions to IC50 for HO-2 in Sprague-Dawley rat brain microsomal fractions; format: microsomes; conditions: Microsome
Documented Ratio IC50 across a set of molecules

{"columns": ["substance smiles", "Ratio IC50"],
 "data": [
  ["c1ccc(C(c2ccccc2)n2c(CN3CCCC3)nc3ccccc32)cc1", "> 24"],
  ["N#Cc1cccc(Cn2c(CN3CCCC3)nc3ccccc32)c1", "> 6"],
  ["c1ccc(Cn2c(CN3CCCC3)nc3ccccc32)cc1", "> 32"],
  ["c1ccc2cc(Cn3c(CN4CCCC4)nc4ccccc43)ccc2c1", "> 20"]
]}

[Q] I have this molecule here, Clc1ccc(Cl)c(Cn2c(CN3CCCC3)nc3ccccc32)c1 , and I need its recorded Ratio IC50.
[A] 24

[Q] Sample CCCn1c(CN2CCCC2)nc2ccccc21 — what was its Ratio IC50?
[A] > 3

[Q] Which Ratio IC50 is reported for this molecule? Clc1cc(Cl)cc(Cn2c(CN3CCCC3)nc3ccccc32)c1
[A] > 47

---

Below, each of the compounds is paired with its reported IC50 value.
Biological target: UniProt P23711
Sequence (P23711 whole entry): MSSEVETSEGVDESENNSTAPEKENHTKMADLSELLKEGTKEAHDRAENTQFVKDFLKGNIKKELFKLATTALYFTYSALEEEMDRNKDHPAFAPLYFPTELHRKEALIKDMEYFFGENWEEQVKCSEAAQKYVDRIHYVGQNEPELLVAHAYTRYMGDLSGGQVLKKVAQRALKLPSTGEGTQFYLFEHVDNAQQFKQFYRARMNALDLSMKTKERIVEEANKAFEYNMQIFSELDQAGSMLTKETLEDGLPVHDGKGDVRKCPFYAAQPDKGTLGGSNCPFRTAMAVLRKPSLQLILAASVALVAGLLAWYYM
Please state the figure in µM; there is no need to write the unit.

Take a look at these entries with their results.
{"columns": ["substance smiles", "IC50, µM"],
 "data": [
  ["Brc1ccccc1Cn1c(CN2CCCC2)nc2ccccc21", 1.6],
  ["c1ccc(C(c2ccccc2)n2c(CN3CCCC3)nc3ccccc32)cc1", 4.1],
  ["Clc1ccccc1Cn1c(CN2CCCC2)nc2ccccc21", 4.8],
  ["Clc1cc(Cl)cc(Cn2c(CN3CCCC3)nc3ccccc32)c1", 2.1],
  ["Clc1ccc(Cl)c(Cn2c(CN3CCCC3)nc3ccccc32)c1", 4]
]}

[Q] Record lookup: for UniProt P23711, what IC50 belongs to CC(C)c1ccc(Cn2c(CN3CCCC3)nc3ccccc32)cc1 ?
[A] 55

[Q] Recorded IC50 for Clc1ccc(Cn2c(CN3CCCC3)nc3ccccc32)cc1Cl with UniProt P23711, please?
[A] 17

[Q] Which IC50 is reported with UniProt P23711 for this entry: O=[N+]([O-])c1ccc(Cn2c(CN3CCCC3)nc3ccccc32)cc1 ?
[A] 27

[Q] Missing value: IC50, UniProt P23711, entry O=[N+]([O-])c1ccccc1Cn1c(CN2CCCC2)nc2ccccc21 . Fill in?
[A] 3.5

[Q] Provide value of IC50 for this record tested with UniProt P23711: N#Cc1cccc(Cn2c(CN3CCCC3)nc3ccccc32)c1
[A] 15.8

---

species on record: Rattus norvegicus; experiment: Selectivity index, ratio of IC50 for HO-1 in Sprague-Dawley rat spleen microsomal fractions to IC50 for HO-2 in Sprague-Dawley rat brain microsomal fractions; format: microsomes; conditions: Microsome
Ratio IC50 values, listed per item

Below: 10 compounds and their reported Ratio IC50.
{"columns": ["substance smiles", "Ratio IC50"],
 "data": [
  ["c1ccc2c(c1)nc(CN1CCCC1)n2CC1CCCCC1", "> 16"],
  ["Clc1cccc(Cn2c(CN3CCCC3)nc3ccccc32)c1", "> 60"],
  ["Clc1ccccc1Cn1c(CN2CCCC2)nc2ccccc21", "> 20"],
  ["Clc1cccc(Cl)c1Cn1c(CN2CCCC2)nc2ccccc21", "> 10"],
  ["c1ccc(CCn2c(CN3CCCC3)nc3ccccc32)cc1", "> 37"],
  ["Brc1cccc(Cn2c(CN3CCCC3)nc3ccccc32)c1", "> 66"],
  ["O=[N+]([O-])c1ccccc1Cn1c(CN2CCCC2)nc2ccccc21", "> 28"],
  ["Brc1ccc(Cn2c(CN3CCCC3)nc3ccccc32)cc1", "> 38"],
  ["c1ccc(COc2ccc(Cn3c(CN4CCCC4)nc4ccccc43)cc2)cc1", "> 1.5"],
  ["Clc1cccc(Cn2c(CN3CCCC3)nc3ccccc32)c1Cl", "> 6"]
]}

[Q] # query: Ratio IC50 of entry Cc1cccc(Cn2c(CN3CCCC3)nc3ccccc32)c1
[A] > 20

[Q] Would you mind telling me what Ratio IC50 value was observed for FC(F)(F)c1ccc(Cn2c(CN3CCCC3)nc3ccccc32)cc1 ?
[A] > 6.4

[Q] For the compound shown here, Clc1ccc(Cn2c(CN3CCCC3)nc3ccccc32)c(Cl)c1 , give the reported Ratio IC50.
[A] 10

[Q] Using the record for O=[N+]([O-])c1ccc(Cn2c(CN3CCCC3)nc3ccccc32)cc1 , report its Ratio IC50.
[A] > 3

[Q] Please look up its Ratio IC50: N#Cc1ccccc1Cn1c(CN2CCCC2)nc2ccccc21
[A] > 25

[Q] Consider the compound Cc1ccc(Cn2c(CN3CCCC3)nc3ccccc32)cc1 and give its measured Ratio IC50.
[A] > 20

[Q] Please report the recorded Ratio IC50 for N#Cc1ccc(Cn2c(CN3CCCC3)nc3ccccc32)cc1 .
[A] > 9

---

species on record: Rattus norvegicus; test: Selectivity index, ratio of IC50 for HO-1 in Sprague-Dawley rat spleen microsomal fractions to IC50 for HO-2 in Sprague-Dawley rat brain microsomal fractions; format: microsomes; conditions: Microsome
measured metric: Ratio IC50

Observe how each entry below is paired with its result.
{"columns": ["substance smiles", "Ratio IC50"],
 "data": [
  ["Clc1ccc(Cn2c(CN3CCCC3)nc3ccccc32)cc1Cl", "> 5"],
  ["CSc1ccc(Cn2c(CN3CCCC3)nc3ccccc32)cc1", "> 6"],
  ["O=[N+]([O-])c1cccc(Cn2c(CN3CCCC3)nc3ccccc32)c1", "> 76"],
  ["Cc1ccccc1Cn1c(CN2CCCC2)nc2ccccc21", 42],
  ["Fc1ccc(Cn2c(CN3CCCC3)nc3ccccc32)cc1", "> 50"]
]}

Query compound follows.
[Q] For the compound shown here, Brc1ccccc1Cn1c(CN2CCCC2)nc2ccccc21 , give the reported Ratio IC50.
[A] 26

Hello, the source for this data is ChEMBL document CHEMBL2434827, in case you need it.
